Molecular target: UniProt:O42713
Sequence (O42713 whole entry): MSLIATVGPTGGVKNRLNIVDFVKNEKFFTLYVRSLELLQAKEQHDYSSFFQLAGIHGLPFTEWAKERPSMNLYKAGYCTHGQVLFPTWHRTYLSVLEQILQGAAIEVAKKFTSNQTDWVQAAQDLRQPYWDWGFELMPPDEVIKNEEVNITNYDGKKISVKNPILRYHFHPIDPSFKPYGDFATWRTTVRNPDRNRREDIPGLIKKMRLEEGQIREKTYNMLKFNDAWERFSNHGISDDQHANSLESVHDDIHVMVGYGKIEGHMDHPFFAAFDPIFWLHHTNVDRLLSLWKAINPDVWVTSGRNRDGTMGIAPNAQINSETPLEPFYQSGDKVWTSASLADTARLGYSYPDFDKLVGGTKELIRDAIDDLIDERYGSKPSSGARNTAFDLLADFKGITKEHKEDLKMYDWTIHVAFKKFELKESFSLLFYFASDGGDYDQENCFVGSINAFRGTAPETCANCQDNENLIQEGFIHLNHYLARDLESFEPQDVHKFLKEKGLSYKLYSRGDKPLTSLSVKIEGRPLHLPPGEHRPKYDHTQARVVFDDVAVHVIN
Experiment: Inhibition of mushroom tyrosinase using tyrosine as substrate pretreated for 5 mins followed by substrate addition measured after 20 mins by ELISA
Active and inactive are the calls of the source. The calls are words filed in the database; no cut-off is given here.
parameter-measured: inhibition

substance-smiles	inhibition
NC(=O)c1cccnc1	Active
O=C(O)c1c[nH]c2ccccc12	Active
O=Cc1c[nH]c2ccccc12	Active
O=C(O)c1ccc(O)cc1	Active
COC(=O)c1c[nH]c2ccccc12	Active

Value sought for every listed molecule: inhibition.
1. C/C(=C\COC(=O)c1ccccc1)CO[C@@H]1O[C@H](CO)[C@@H](O)[C@H](O)[C@H]1O
2. COc1cc(/C=C/C(=O)NCCc2ccc(O)cc2)ccc1O
3. COc1cc(C(C)=O)ccc1O
4. CC1=CC(=O)CC(C)(C)[C@@]1(O)CC[C@H](C)O

["Active", "inactive", "inactive", "inactive"]

Batch: inhibition for all items listed.
1. CC1=CC(=O)CC(C)(C)/C1=C/C[C@@H](C)O
2. CC(=O)/C=C/[C@@]12O[C@]1(C)C[C@@H](O)CC2(C)C
3. O=c1cc(-c2ccc(O)c(O)c2)oc2cc(O)cc(O)c12
4. O=Cc1ccccc1

["inactive", "inactive", "Active", "Active"]

Can you give me inhibition for all of these, one by one?
1. O=c1cc(-c2ccc(O)cc2)oc2c([C@@H]3O[C@H](CO)[C@@H](O)[C@H](O)[C@H]3O)c(O)cc(O)c12
2. C=CCc1ccc(O[C@@H]2O[C@H](CO)[C@@H](O)[C@H](O)[C@H]2O)c(OC)c1
3. COc1cc(/C=C\C(=O)NCCc2ccc(O)cc2)ccc1O
4. CC(=O)C=C=C1C(C)(C)C[C@H](O)C[C@@]1(C)O
5. CC(=O)/C=C/[C@H]1C(C)=C[C@H](O)CC1(C)C
6. COc1cc2ccc(=O)oc2cc1O

inactive
inactive
inactive
inactive
inactive
Active

Provide inhibition values for the following items, in order.
1. C/C(=C\COC(=O)c1ccccc1O)CO[C@@H]1O[C@H](CO)[C@@H](O)[C@H](O)[C@H]1O
2. COc1cc(C(=O)O)ccc1O
3. O=C(/C=C\c1ccc(O)cc1)NCCc1ccc(O)cc1
4. O=c1cc(-c2ccc(O)cc2)oc2cc(O)cc(O)c12
5. CC(=O)/C=C/[C@@]1(O)C(C)=CC(=O)CC1(C)C

1. Active
2. inactive
3. Active
4. Active
5. inactive

Could you report inhibition for every entry in the following list?
1. COc1ccc(C=O)cc1O
2. CC1(C)C[C@@H](O)C[C@@]2(C)OC(=O)C=C12

inactive
inactive
